Hello, the source for this data is paper PMC11965522, in case you need it.

Target: Mre11 K365E;Rad50 full-length (Pyrococcus furiosus;Pyrococcus furiosus, UniProt Q8U1N9;P58301 1-426;1-882, K365E|)
Sequence (P58301 whole entry K365E, one chain of several): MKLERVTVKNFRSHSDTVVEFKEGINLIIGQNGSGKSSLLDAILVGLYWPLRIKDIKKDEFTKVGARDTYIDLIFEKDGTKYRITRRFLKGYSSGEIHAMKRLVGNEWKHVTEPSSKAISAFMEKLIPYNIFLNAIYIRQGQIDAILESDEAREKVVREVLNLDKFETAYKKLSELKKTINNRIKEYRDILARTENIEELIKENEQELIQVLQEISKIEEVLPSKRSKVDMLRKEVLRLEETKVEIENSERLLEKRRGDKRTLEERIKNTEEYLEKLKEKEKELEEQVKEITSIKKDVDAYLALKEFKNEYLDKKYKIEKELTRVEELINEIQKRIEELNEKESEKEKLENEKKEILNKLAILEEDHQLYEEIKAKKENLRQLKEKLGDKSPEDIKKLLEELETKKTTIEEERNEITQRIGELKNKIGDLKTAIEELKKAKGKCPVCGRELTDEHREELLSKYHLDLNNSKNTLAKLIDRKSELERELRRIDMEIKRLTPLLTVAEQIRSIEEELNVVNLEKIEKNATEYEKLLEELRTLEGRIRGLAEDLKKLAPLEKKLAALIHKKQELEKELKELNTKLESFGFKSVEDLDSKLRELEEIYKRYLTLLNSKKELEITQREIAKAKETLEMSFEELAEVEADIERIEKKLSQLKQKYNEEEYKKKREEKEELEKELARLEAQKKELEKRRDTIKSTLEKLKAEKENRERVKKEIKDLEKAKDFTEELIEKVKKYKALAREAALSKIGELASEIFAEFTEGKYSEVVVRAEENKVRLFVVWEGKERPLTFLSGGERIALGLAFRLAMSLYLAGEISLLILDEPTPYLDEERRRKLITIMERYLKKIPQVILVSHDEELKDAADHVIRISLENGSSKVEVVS
Assay: fluorescence polarization
test.readout: Kd (nM)
Please give a number only; it is taken to be in nM.

Consider 40-mer dsDNA (dsDNA) DNA 1: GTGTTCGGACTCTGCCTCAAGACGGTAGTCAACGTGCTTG DNA 2: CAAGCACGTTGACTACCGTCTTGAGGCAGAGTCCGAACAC . Its measured Kd is 710
